System: KE-37 (T-Lymphoblastic Leukemia)
experiment notes: combination Emax (second highest fraction inhibited in the dose matrix, 72 h); higher = more inhibition; extreme values may be limits of the assay
The following compounds are shown together with reported combination Emax values.

compound: Cc1c2c(nn1C)CSCc1cc(n(C)n1)CSc1cc(c3ccccc3c1)OCCCc1c(C(=O)O)n(C)c3c-2c(Cl)ccc13 [AZD5991] + Cc1cc2ncnn2cc1Nc1ncc2c(n1)n(C1CCOCC1)c(=O)n2C [AZD7648] (first compound max 1 µM, 7x7, partner max 10 µM)
combination Emax: 0.975
--
compound: Cc1nc(Nc2ncc(C(=O)Nc3c(C)cccc3Cl)s2)cc(N2CCN(CCO)CC2)n1 [Dasatinib] + CC(=O)Nc1cccc(-n2c(=O)n(C3CC3)c(=O)c3c(Nc4ccc(I)cc4F)n(C)c(=O)c(C)c32)c1 [Trametinib] (first compound max 2 µM, 7x7, partner max 1 µM)
combination Emax: 0.32
--
compound: Cc1c2c(nn1C)CSCc1cc(n(C)n1)CSc1cc(c3ccccc3c1)OCCCc1c(C(=O)O)n(C)c3c-2c(Cl)ccc13 [AZD5991] + C[C@@H]1COCCN1C2=NC(=NC(=C2)C3(CC3)[S@](=N)(=O)C)C4=C5C=CNC5=NC=C4 [AZD6738] (first compound max 1 µM, 7x7, partner max 10 µM)
combination Emax: 1
--
compound: COc1nnc2ccc(N3CCC(c4ccc(OCCN5CCN(C)C(=O)[C@H]5C)cc4)CC3)nn12 [AZD5153] + Cc1c2c(nn1C)CSCc1cc(n(C)n1)CSc1cc(c3ccccc3c1)OCCCc1c(C(=O)O)n(C)c3c-2c(Cl)ccc13 [AZD5991] (first compound max 1 µM, 7x7, partner max 1 µM)
combination Emax: 0.997

* * *

Tested on: MKN45 (Gastric Carcinoma);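 further: after 72 h of two-drug dosing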
experiment notes: Bliss excess, mean over the matrix (fraction); higher = more synergy

compound: NC1(C(=O)N[C@@H](CCO)c2ccc(Cl)cc2)CCN(c2ncnc3[nH]ccc23)CC1 [Capivasertib] + CC(=O)c1c(C)c2cnc(Nc3ccc(N4CCNCC4)cn3)nc2n(C2CCCC2)c1=O [Palbociclib] (first compound max 10 µM, 7x7, partner max 10 µM)
Bliss excess: 0.0256
//
compound: CN(C)CCCOc1ccc(-c2ccc3ncc4c(c3c2)n(C2CCOCC2)c(=O)n4C)cn1 [AZD0156] + C[C@@H]1COCCN1C2=NC(=NC(=C2)C3(CC3)[S@](=N)(=O)C)C4=C5C=CNC5=NC=C4 [AZD6738] (first compound max 1 µM, 7x7, partner max 10 µM)
Bliss excess: 0.0072
//
compound: Cn1cnc2c(F)c(Nc3ccc(Br)cc3Cl)c(C(=O)NOCCO)cc21 [Selumetinib] + CC(C)n1c(=O)n(C)c2cnc3cc(F)c(-c4ccc(OCCCN5CCCCC5)nc4)cc3c21 [AZD1390] (first compound max 10 µM, 7x7, partner max 0.3 µM)
Bliss excess: -0.0388

* * *

Test system: RCM-1 (Colorectal Carcinoma)
experiment notes: combination Emax (second highest fraction inhibited in the dose matrix, 72 h); higher = more inhibition; extreme values may be limits of the assay
# maps each entry to its combination Emax

compound: Cc1c2c(nn1C)CSCc1cc(n(C)n1)CSc1cc(c3ccccc3c1)OCCCc1c(C(=O)O)n(C)c3c-2c(Cl)ccc13 [AZD5991] + C[C@@H](Nc1cc(F)cc(F)c1)c1cc(C(=O)N(C)C)cc2c(=O)cc(N3CCOCC3)oc12 [AZD8186] (first compound max 1 µM, 7x7, partner max 3 µM)
combination Emax: 0.285
//
compound: Cc1c2c(nn1C)CSCc1cc(n(C)n1)CSc1cc(c3ccccc3c1)OCCCc1c(C(=O)O)n(C)c3c-2c(Cl)ccc13 [AZD5991] + C[C@@H]1COCCN1C2=NC(=NC(=C2)C3(CC3)[S@](=N)(=O)C)C4=C5C=CNC5=NC=C4 [AZD6738] (first compound max 1 µM, 7x7, partner max 10 µM)
combination Emax: 0.801
//
compound: COc1cccc(OCCCN)c1-c1cc(Nc2cnc(C#N)cn2)n[nH]1 [Prexasertib] + Cc1cc2ncnn2cc1Nc1ncc2c(n1)n(C1CCOCC1)c(=O)n2C [AZD7648] (first compound max 1 µM, 7x7, partner max 10 µM)
combination Emax: 0.796
//
compound: CN(CCO)CC[C@H](CSc1ccccc1)Nc1ccc(S(=O)(=O)NC(=O)c2ccc(N3CCC([C@@H](O)c4ccccc4-c4ccc(Cl)cc4)CC3)cc2)cc1S(=O)(=O)C(F)(F)F [AZD4320] + Nc1ccn([C@@H]2O[C@H](CO)[C@@H](O)C2(F)F)c(=O)n1 [Gemcitabine] (first compound max 1 µM, 7x7, partner max 0.3 µM)
combination Emax: 0.37
//
compound: Cn1cnc2c(F)c(Nc3ccc(Br)cc3Cl)c(C(=O)NOCCO)cc21 [Selumetinib] + C=CCn1c(=O)c2cnc(Nc3ccc(N4CCN(C)CC4)cc3)nc2n1-c1cccc(C(C)(C)O)n1 [AZD1775] (first compound max 10 µM, partner max 1 µM)
combination Emax: 0.637
//
compound: COc1cc2ncnc(Nc3ccc(F)c(Cl)c3)c2cc1OCCCN1CCOCC1 [Gefitinib] + CC(C)n1c(=O)n(C)c2cnc3cc(F)c(-c4ccc(OCCCN5CCCCC5)nc4)cc3c21 [AZD1390] (first compound max 10 µM, 7x7, partner max 0.3 µM)
combination Emax: 0.41
//
compound: CN(CCO)CC[C@H](CSc1ccccc1)Nc1ccc(S(=O)(=O)NC(=O)c2ccc(N3CCC([C@@H](O)c4ccccc4-c4ccc(Cl)cc4)CC3)cc2)cc1S(=O)(=O)C(F)(F)F [AZD4320] + CN(C)CCCOc1ccc(-c2ccc3ncc4c(c3c2)n(C2CCOCC2)c(=O)n4C)cn1 [AZD0156] (first compound max 1 µM, 7x7, partner max 1 µM)
combination Emax: 0.435
